The measurements presented in this section are drawn from patent US4113944A.

Assay: acute toxicity in mice (LD50)
Settings: mouse, in vivo; acute toxicity, mice; Example 1 as disodium salt; read-out: LD50
In this section, each of the molecules is paired with its reported LD50.
measured-property: LD50 (mg/kg)

In [3]: df
Out[3]:
                                   molecule  measured_property  units_symbol  observed_result
0  CC(=O)OCC1=C(C(=O)O)N2C(=O)[C@@H](NC(=O)Cc3cccs3)[C@H]2SC1 [Sodium Cephalotin, reference compound]               LD50         mg/kg             5180
1  Cc1nnc(SCC2=C(C(=O)O)N3C(=O)[C@@H](NC(=O)Cn4cnnn4)[C@H]3SC2)s1 [Sodium Cephazoline]               LD50         mg/kg             3130
2  O=C(O)Cc1nnc(SCC2=C(C(=O)O)N3C(=O)C(NC(=O)Cc4cccs4)[C@H]3SC2)[nH]1 (stereo partly drawn) [Example 1]               LD50         mg/kg             6300

----------
Test: acute toxicity in mice (LD50)
Settings: mouse, in vivo
measured-property: LD50 (mg/kg)

                            molecule_smiles  measured_property  observed_result
0  O=C(Cc1cccs1)N[C@@H]1C(=O)N2C(C(=O)[O-])=C(C[n+]3ccccc3)CS[C@H]12               LD50             3840
